# test.method.notes: Dose modified systemic exposure (AUC0→∞/D, Cmax/D)
# condition.description: oral ZJ extract
attribute.measured: Cmax/D (ratio of Cmax and dose)
Numbers only.

Reference set, count: 3
>>> assay_result("CCCCC=CCCCCCCCc1cc(=O)c2ccccc2n1C [evocarpine]")
14.42
>>> assay_result("O=c1c2c3c(ccc2cc2n1CCc1cc4c(cc1-2)OCO4)OCO3 [8-oxocoptisine]")
3.98
>>> assay_result("COc1cc2c(cc1OC)-c1cc3ccc4c(c3c(=O)n1CC2)OCO4 [8-oxoepiberberine]")
13.92

Dear colleague, could you please provide Cmax/D (ratio of Cmax and dose) for the molecules listed below?
1. COc1cc2c(cc1OC)-c1cc3ccc4c(c3c[n+]1CC2)OCO4 [epiberberine]
2. COc1cc2c(cc1OC)C(=O)NCC2 [corydaldine]
3. O=C1NCCc2cc3c(cc21)OCO3 [noroxyhydrastinine]
4. Cn1c(=O)n(CCC2(O)C(=O)Nc3ccccc32)c(=O)c2ccccc21 (stereo not shown) [wuchuyuamide-I]

**A:**
1. 0.12
2. 369.29
3. 357.11
4. 46.62
